Values were extracted from PubChem BioAssay.

Assay: small-molecule binders of probe aNOTCH3, primary screen, biochemical, small-molecule microarray, 635/667 nm fluorescence (AID 1120);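 further: probe is a biotin-tagged antibody raised against NOTCH3 rather than NOTCH3 protein; score merges spot fluorescence near 667 nm with spot signal to noise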
Conditions: higher = more signal
valueType: composite z-score
Could you keep your reply to the number by itself?

Would you please look over these solved cases?
{"columns": ["compound", "composite z-score"],
 "data": [
  ["O=C1C2C=CC(C(O)C(c3ccccc3)c3ccccc3)N(n3cnnc3)C2C(=O)N1Cc1ccccc1 (centres undefined)", 0.116],
  ["CN(C)CCCNC(=O)[C@@]1(c2ccc([N+](=O)[O-])cc2)CC(=O)N(C2CCCCC2)[C@@H]1c1ccc(CO)cc1", -0.0795],
  ["CCCCC(O)C1C=CC2C(=O)N(c3ccccc3)C(=O)C2N1Nc1ccccc1F (centres undefined)", 0.378],
  ["O=C1c2ccccc2[C@](Cc2ccccc2I)(C(=O)NC2CC2)[C@H](c2ccc(CO)cc2)N1C1CCCCC1", 0.174],
  ["COC(=O)[C@@]1(Cc2ccc(OC)cc2)[C@H]2c3cc(C(=O)N4CCCC4)n(Cc4ccsc4Br)c3C[C@H]2CN1C(=O)c1ccccc1", 0.527],
  ["[N-]=[N+]=NCc1ccccc1C[C@@]1(C(=O)NCC(O)CO)N=C(c2ccc(OCCCO)cc2)O[C@@H]1c1ccccc1N=[N+]=[N-] (some centres undefined)", 0.318]
]}

Challenge: Which composite z-score value is on record for O=C1C[C@]2(c3ccc([N+](=O)[O-])cc3)C(=O)N(CCN3CCOCC3)c3cc(CO)ccc3[C@H]2N1C1CCCCC1 ?
Response given: -0.221

Challenge: Entry to check: COc1ccc(CCN2C(=O)[C@@]3(c4ccc([N+](=O)[O-])cc4)CC(=O)N(C4CCCCC4)[C@@H]3c3ccc(CO)cc32)cc1
Response given: -0.0598

Challenge: Entry to check: CCCCN1CC=CC23O[C@@H]4/C=C\CCC(C)OC(=O)C4[C@H]2C(=O)N(CCCCCO)[C@@H]3C1=O (some centres undefined)
Response given: -0.422

Challenge: Entry to check: COc1ccc(CCNC(=O)[C@@]2(C)c3ccccc3C(=O)N(Cc3cc(F)cc(C(F)(F)F)c3)[C@H]2c2ccc(CO)cc2)cc1
Response given: -0.189

Challenge: Entry to check: CC(C)[C@@H](CO)NC(=O)[C@H]1[C@@H](c2ccccc2)N(c2ccccc2)O[C@@H]1C
Response given: -0.0573

Challenge: Entry to check: [N-]=[N+]=Nc1ccccc1[C@H]1OC(c2ccc(OCCCO)cc2)=N[C@@]1(Cc1ccccc1)C(=O)O
Response given: 0.196

Challenge: Entry to check: COc1ccc(C(=O)Nc2ccc(CN3C(=O)[C@@]4(O[C@@H](CCn5cc([C@H](O)c6ccccc6)nn5)[C@H]([Si](C)(C)c5ccc(OC)cc5)[C@H]4C)c4ccccc43)cc2)cc1
Response given: -0.0377

Challenge: Entry to check: COCCOC(=O)N1C(=O)[C@@]2(c3cc(C#Cc4ccc(OC)cc4)ccc31)[C@H](c1ccccc1OCCO)N1[C@H](c3ccccc3)[C@H](c3ccccc3)OC(=O)[C@H]1[C@@H]2C(=O)N1CCN(c2ncccn2)CC1
Response given: -0.0288

----------
Listed here: items and their measured composite z-score.
Molecular target: Carbonic anhydrase 2 (Homo sapiens) (UniProt P00918)
Assay: CAII small-molecule binders, profiling panel, biochemical, small-molecule microarray, Alexa647-labelled CAII (AID 1122)
Conditions: CAII-A647 binding fluorescence, higher = more signal
Could you keep your reply to the number by itself?

Would you please look over these solved cases?
{"columns": ["compound", "observed"],
 "data": [
  ["Cc1ccc(S[C@]2(C(=O)NCC(C)C)CC(=O)N(Cc3cc(C(F)(F)F)cc(C(F)(F)F)c3)[C@@H]2c2ccc(CO)cc2I)cc1", 0.89],
  ["COC(=O)C(CC#Cc1ccc2c(c1)[C@]1(C(=O)N2)[C@H](C(=O)O)[C@H]2C(=O)O[C@H](c3ccccc3)[C@H](c3ccccc3)N2[C@@H]1c1ccc(O)cc1)C(=O)OC", 0.66],
  ["C[N+](C)(C)CCCCNC(=O)[C@H]1C[C@H]2C(=O)N[C@@H](Cc3ccccc3)C(=O)N2[C@H]1c1ccc(O)cc1", 0.358]
]}

Challenge: Which composite z-score value is on record for OC([C@@H]1CC(c2ccccc2)=NO1)[C@H]1CC(c2ccccc2)=NO1 (stereo partly drawn) ?
Response given: -0.11

Challenge: Entry to check: COc1cc2c(cc1O)C(C1CC1)N(Cc1cc3c(cc1Br)OCO3)CC2 (stereo not drawn)
Response given: 0.593

Challenge: Entry to check: O=C1NCC(=O)N2[C@@H]1C[C@@H](C(=O)O)[C@H]2c1cccc(OCCO)c1
Response given: 0.628
